- measurement target: human α4β2 (Homo sapiens, UniProt P17787+P43681)
- Construct: host or cells: SH-EP1
- Sequence (P43681 29-627 limits assumed): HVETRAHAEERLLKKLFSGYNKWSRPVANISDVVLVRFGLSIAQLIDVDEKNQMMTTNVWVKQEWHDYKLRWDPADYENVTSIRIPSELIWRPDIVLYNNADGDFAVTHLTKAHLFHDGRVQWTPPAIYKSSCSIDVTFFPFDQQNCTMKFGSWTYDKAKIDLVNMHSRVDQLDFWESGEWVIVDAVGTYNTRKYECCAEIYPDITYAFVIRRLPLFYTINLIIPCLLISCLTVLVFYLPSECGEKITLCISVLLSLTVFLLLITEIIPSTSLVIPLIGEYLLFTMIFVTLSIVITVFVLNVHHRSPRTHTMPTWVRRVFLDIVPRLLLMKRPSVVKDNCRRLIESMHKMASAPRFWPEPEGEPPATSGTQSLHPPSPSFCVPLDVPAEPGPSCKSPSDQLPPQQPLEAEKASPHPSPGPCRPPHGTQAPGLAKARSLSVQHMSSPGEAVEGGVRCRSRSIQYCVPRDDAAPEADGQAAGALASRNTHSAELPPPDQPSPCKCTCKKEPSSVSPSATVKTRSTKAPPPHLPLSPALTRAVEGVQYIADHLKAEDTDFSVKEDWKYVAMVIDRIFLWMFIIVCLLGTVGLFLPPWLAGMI
- Sequence (P17787 26-502): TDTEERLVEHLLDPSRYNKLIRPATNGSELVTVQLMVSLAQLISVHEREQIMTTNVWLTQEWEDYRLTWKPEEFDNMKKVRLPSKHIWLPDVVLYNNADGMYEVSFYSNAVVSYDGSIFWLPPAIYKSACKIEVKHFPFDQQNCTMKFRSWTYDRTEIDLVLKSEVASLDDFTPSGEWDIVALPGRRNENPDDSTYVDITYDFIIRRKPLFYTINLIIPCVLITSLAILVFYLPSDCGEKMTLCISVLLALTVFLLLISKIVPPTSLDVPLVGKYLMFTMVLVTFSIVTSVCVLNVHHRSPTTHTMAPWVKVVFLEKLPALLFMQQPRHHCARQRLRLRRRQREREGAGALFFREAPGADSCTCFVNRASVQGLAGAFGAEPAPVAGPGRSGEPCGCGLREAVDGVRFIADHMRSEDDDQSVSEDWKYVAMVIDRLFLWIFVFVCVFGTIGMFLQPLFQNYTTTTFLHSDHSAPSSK
- experiment summary: Calcium flux functional assay, inhibition of nicotine response in SH-EP1-human α4β2 cells
- Format: cell-based
- recorded conditions: 29C/HS (29° C.-treated SH-EP1-human α4β2 cells), nicotine 1 μM; read-out: Human α4β2 Ca Flux Imax [29C/HS]
In this section, each of the compounds is paired with its reported Emax.
Kindly answer with a numeric value in %, unit omitted.

compound | Emax (%)
CN(C)C1C2(CCC2)[C@@H]2CC[C@@]1(C)C2(C)C (stereo partly shown) [drawing 37] | 96
CNC1(C)C2CCC(C2)C12CC2 (stereo not shown) | 97
CNC1C2(CCC2)[C@H]2CC[C@]1(C)C2(C)C (stereo partly shown) [drawing 31] | 99

Now consider the entry below.
query: Given the entry C1CCN(C2C3CCC(C3)C23CCC3)C1 (stereo not shown) , what Emax was observed with human α4β2 (Homo sapiens, UniProt P17787+P43681)?
result: 90

----------
- measurement target: human α4β2 (Homo sapiens, UniProt P17787+P43681)
- Construct: host or cells: SH-EP1
- experiment summary: Calcium flux functional assay, inhibition of nicotine response in SH-EP1-human α4β2 cells
- Format: cell-based
- recorded conditions: 37C/LS, nicotine 1 μM; read-out: Human α4β2 Ca Flux Imax [37C/LS]
assay metric: Emax (%)
Kindly answer with a numeric value in %, unit omitted.

compound | Emax, %
C1CCN(C2C3CCC(C3)C23CCC3)C1 (centres unmarked) | 96
CN(C)C1C2(CCC2)[C@@H]2CC[C@@]1(C)C2(C)C (some centres unmarked) [drawing 37] | 95
CNC1C2(CCC2)[C@@H]2CC[C@@]1(C)C2(C)C (some centres unmarked) [drawing 33] | 95
CNC1C2(CCC2)[C@H]2CC[C@]1(C)C2(C)C (some centres unmarked) [drawing 31] | 96
CN[C@@]1(C)[C@@H]2CC[C@@H](C2)C12CCC2 (racemic) | 95
CNC1(C)C2CCC(C2)C12CC2 (centres unmarked) | 93
CNC1C2CCC(C2)C12CC2 (centres unmarked) | 93

query: What value of measured Emax is listed for CNC1C2CCC(C2)C12CCC2 (centres unmarked) ?
result: 97

----------
- measurement target: Human Ganglion (Homo sapiens, UniProt P30926+P32297)
- Construct: Human Ganglion Ca Flux IC50; Human Ganglion Ca Flux Imax
- Sequence (P30926 22-498): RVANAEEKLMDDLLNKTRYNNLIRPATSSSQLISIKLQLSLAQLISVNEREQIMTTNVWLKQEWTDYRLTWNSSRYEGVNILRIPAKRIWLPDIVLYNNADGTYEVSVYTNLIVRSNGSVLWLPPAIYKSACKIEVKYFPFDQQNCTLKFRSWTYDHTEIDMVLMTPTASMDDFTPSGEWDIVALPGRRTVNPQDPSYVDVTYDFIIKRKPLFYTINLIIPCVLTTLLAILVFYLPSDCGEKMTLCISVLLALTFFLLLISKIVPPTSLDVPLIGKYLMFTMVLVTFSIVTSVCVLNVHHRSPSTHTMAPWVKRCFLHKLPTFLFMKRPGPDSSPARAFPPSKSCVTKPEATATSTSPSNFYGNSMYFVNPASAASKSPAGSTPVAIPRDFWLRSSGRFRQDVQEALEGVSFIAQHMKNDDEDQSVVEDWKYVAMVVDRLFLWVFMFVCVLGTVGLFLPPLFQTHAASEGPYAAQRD
- Sequence (P32297 32-505): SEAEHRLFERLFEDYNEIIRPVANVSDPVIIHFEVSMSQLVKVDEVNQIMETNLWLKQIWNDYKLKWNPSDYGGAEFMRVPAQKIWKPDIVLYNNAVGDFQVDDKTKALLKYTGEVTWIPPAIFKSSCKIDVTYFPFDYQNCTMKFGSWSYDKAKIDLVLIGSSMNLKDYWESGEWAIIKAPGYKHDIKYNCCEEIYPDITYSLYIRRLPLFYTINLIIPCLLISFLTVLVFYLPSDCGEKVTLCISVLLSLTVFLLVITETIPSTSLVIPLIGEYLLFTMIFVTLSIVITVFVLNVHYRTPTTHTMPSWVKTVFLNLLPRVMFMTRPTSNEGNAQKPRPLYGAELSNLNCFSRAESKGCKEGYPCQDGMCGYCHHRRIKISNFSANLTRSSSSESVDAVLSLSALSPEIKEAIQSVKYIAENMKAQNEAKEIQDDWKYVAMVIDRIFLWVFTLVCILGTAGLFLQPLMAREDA
- experiment summary: Calcium flux functional assay, inhibition of nicotine response at human ganglionic receptor subtype
- Format: cell-based
- recorded conditions: read-out: Human Ganglion Ca Flux Imax
- Protocol: SH-EP1-human α4β2 (Eaton et al., 2003), SH-EP1-human α4β4 (Gentry et al., 2003) and SH-EP1-α6β3β4α5 (Grinevich at al., 2005) cell lines were obtained from Dr. Ron Lukas (Barrow Neurological Institute). The SH-EP1 cell lines, PC12, SH-SY5Y and TE671/RD cells were maintained in proliferative growth phase in Dulbecco's modified Eagle's medium (Invitrogen, Carlsbad, Calif.) with 10% horse serum (Invitrogen), 5% fetal bovine serum (HyClone, Logan Utah), 1 mM sodium pyruvate, 4 mM L-glutamine. […]
assay metric: Emax
Answer as a quantity: numeral, then unit.

query: What value of measured Emax is listed for C1CN(C2C3CCC(C3)C23CCC3)C1 (stereo not drawn) ?
result: 89%

query: Please give the result for CNC1C2(CCC2)[C@H]2CC[C@]1(C)C2(C)C (stereo partly drawn) [drawing 31] too.
result: 97%

query: Please give the result for C1CCN(C2C3CCC(C3)C23CCC3)C1 (stereo not drawn) too.
result: 79%
